# TARGET: UniProt:P48048
# Sequence (P48048 whole entry): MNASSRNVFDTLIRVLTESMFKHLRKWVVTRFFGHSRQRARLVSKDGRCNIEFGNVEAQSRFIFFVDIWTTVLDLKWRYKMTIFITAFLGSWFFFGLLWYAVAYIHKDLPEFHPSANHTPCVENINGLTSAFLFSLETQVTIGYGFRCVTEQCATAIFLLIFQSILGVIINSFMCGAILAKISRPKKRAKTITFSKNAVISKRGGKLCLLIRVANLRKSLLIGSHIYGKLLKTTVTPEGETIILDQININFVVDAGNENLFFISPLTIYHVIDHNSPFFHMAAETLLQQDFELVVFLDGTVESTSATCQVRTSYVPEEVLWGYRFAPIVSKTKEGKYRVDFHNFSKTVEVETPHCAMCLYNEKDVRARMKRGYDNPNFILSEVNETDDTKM
# TEST: Thallium Flux Assay (ROMK channel functional thallium flux, FLIPR-Tetra)
# EXPERIMENTAL_PARAMETERS: HEK293 cells stably expressing hROMK (hKir1.1)
PROPERTY_LABEL: pIC50
Give bare numbers, as −log10 of the molar value.

Field: example entries. Status: answers known.
COMPOUND	PROPERTY_LABEL	VAL
Cc1c([C@@H]2CN3CCN(C(=O)C4CCc5cc(-n6cnnn6)cnc54)C[C@H]3CO2)ccc(F)c1C#N (stereo partly shown) [Example 37]	pIC50	6.09
COc1cc([C@H]2CN3CCN(C(=O)C4CCc5nc(-n6cnnn6)ccc54)C[C@H]3CO2)ccc1C#N (stereo partly shown) [Example 51]	pIC50	6.24
Cc1c([C@@H]2CN3CCN(C(=O)C4CCc5cc(-n6cnnn6)ncc54)C[C@@H]3CO2)ccc(F)c1C#N (stereo partly shown) [Example 42]	pIC50	6.46

Recorded pIC50 of Cc1c([C@@H]2CN3CCN(C(=O)C4CCc5nc(-n6cnnn6)ccc54)C[C@H]3CO2)csc1C#N (stereo partly shown) [Example 15] , please.
6.27
